target: Stb4 (UniProt P50104); experiment: PBM E-score (8-mer binding enrichment) (E-score (-0.5 to 0.5)); higher = stronger / more preferred TF binding; details: protein concentration: 200 nM; construct: GST-DNA-binding domain
Sequence (P50104 whole entry, the tested form may be a part): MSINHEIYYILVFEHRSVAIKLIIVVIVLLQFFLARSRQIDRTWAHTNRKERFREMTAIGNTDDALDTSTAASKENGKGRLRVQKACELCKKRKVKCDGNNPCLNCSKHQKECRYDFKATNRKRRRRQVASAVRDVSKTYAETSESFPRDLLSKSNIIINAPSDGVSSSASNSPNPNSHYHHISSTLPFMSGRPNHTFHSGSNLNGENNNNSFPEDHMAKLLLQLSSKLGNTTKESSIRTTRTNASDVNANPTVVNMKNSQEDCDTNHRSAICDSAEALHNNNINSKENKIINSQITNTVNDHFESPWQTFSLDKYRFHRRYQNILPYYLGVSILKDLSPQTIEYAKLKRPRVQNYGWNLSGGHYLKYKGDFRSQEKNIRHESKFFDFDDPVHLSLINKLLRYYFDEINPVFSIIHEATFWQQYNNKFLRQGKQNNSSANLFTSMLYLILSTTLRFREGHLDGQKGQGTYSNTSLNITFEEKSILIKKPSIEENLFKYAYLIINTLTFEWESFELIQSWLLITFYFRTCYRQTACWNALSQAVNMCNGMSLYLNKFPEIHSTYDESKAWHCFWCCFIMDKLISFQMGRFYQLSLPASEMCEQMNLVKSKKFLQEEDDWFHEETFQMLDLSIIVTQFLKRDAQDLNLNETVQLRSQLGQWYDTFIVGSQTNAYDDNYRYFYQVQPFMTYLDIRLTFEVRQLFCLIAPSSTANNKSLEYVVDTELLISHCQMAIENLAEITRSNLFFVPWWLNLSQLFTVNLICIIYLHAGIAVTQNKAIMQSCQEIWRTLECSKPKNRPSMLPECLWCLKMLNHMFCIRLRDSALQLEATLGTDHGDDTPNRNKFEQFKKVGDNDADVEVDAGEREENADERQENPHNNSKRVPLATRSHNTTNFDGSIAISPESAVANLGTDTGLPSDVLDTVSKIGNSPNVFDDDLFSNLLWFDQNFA
Whole data set: some 33,000 sequences, median “E-score (-0.5 to 0.5)” near -0.056, cut for the highest 2% near 0.38. Many of the other results were omitted from the sample, so the highest values are more common in it than they were.
So basically every entry gets a class from its PBM E-score, ranges being low = under -0.06, medium = from -0.06 up to 0.3, high = 0.3 and over

# item sequence, assigned class
data = [
    ("CACGAACA", "low"),
    ("CGCTTCCC", "medium"),
    ("AGAGGTTC", "medium"),
    ("CCCGAACA", "high"),
    ("ATACGGGA", "medium"),
    ("GCGAGCGC", "low"),
    ("ACGCCATA", "low"),
    ("GATAGCGA", "medium"),
    ("GGATCATA", "medium"),
    ("ACTCGTCT", "low"),
    ("CAAGCGAA", "low"),
    ("GTAGTCAC", "low"),
    ("ACTTTCCG", "high"),
    ("AGAGACCC", "medium"),
    ("GGTCGGTA", "medium"),
    ("TCCGGAAA", "high"),
    ("ACTCGGCT", "high"),
    ("TGATTGCA", "low"),
    ("AGAGTGCG", "low"),
    ("CACTCGGG", "high"),
    ("CTATTCCC", "medium"),
    ("ATCCGGAC", "high"),
    ("ACGAAGTC", "low"),
    ("ACTTTCCC", "medium"),
    ("CCCGGGAA", "high"),
    ("CTTCGGTC", "medium"),
    ("CTCCGGAA", "high"),
    ("ATTACGCA", "medium"),
    ("GGCGAACC", "medium"),
    ("AGCTTCCG", "high"),
    ("TCCGGGAA", "high"),
    ("ATTAGGCA", "low"),
    ("GCCGAACC", "high"),
    ("CGCTTCCG", "high"),
    ("CCCGAACC", "high"),
    ("GTGAGTTA", "low"),
    ("ATGGGACA", "medium"),
    ("CTCCGGTA", "medium"),
    ("ACGTCCCT", "low"),
    ("ACGAAGTA", "medium"),
    ("CACGAACC", "low"),
    ("CGGGAAGA", "high"),
    ("GACTCGCA", "medium"),
    ("CCGGAAGA", "high"),
    ("CCCGAGTC", "high"),
    ("CCACTCCA", "low"),
]
